Taken from paper PMC5216056.

# experimental-target: 5-HT2B (h) (Homo sapiens)
# Construct: CEREP (contract assay)
# Sequence (P41595 whole entry): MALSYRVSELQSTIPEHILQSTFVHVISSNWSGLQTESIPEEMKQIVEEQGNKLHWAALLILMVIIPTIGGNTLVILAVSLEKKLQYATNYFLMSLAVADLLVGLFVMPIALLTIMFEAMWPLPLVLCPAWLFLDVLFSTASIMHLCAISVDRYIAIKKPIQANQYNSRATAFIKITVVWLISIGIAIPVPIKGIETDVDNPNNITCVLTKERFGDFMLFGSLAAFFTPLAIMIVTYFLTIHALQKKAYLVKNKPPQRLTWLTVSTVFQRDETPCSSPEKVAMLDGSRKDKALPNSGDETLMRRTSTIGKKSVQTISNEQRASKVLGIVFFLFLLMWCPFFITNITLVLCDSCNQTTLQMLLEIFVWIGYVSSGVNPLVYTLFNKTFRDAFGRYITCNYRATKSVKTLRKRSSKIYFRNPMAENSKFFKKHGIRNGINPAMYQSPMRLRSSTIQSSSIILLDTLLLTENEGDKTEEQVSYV
# test-method-notes: CEREP panel
# Type: binding
# stated-conditions: 10 µM
readout: % inhibition 5-HT2B (h) (%)
State the answer as a number, implicitly in %.

Check out these entries, answers already filled in.
[
  {
    "compound": "Cc1c(C(=O)c2cccc3ccccc23)c2cccc3c2n1[C@H](CN1CCOCC1)CO3",
    "% inhibition 5-HT2B (h), %": 70
  },
  {
    "compound": "CCCn1c(C)c(C(=O)c2cccc3ccccc23)c2ccccc21",
    "% inhibition 5-HT2B (h), %": 94
  },
  {
    "compound": "Cc1ccc2c(c1)Cc1c(C(=O)NN3CCCCC3)nn(-c3ccc(Cl)cc3Cl)c1-2",
    "% inhibition 5-HT2B (h), %": 29
  }
]

q: 5-HT2B (h) (Homo sapiens) / % inhibition 5-HT2B (h) / Cc1c(C(=O)NN2CCCCC2)nn(-c2ccc(Cl)cc2Cl)c1-c1ccc(I)cc1 : value?
a: 28

q: Cool, now CCCC(C)(C)c1ccc2c(c1)OC(C)(C)[C@@H]1CC=C(C)C[C@@H]21
a: 3

q: Cool, now CCCCCCC(C)(C)c1cc(OC)c(C2=C[C@H]3CC[C@]2(CO)C3(C)C)c(OC)c1
a: 87

q: Cool, now CN1CCCC[C@H]1Cn1cc(C(=O)c2cc([N+](=O)[O-])ccc2I)c2ccccc21 [(S)-AM1241]
a: 93

q: Do the same for COc1ccc(C(=O)c2c(C)n(CCN3CCOCC3)c3cc(I)ccc23)cc1 please
a: 65

* * *

# System: AEA reuptake in HaCaT cells
# test-method-notes: cells
# Type: cell-based, human
# stated-conditions: read-out: AEA reuptake IC50 (95% CI) HaCaT cells
readout: IC50 (µM)
Numeric only. Scale: µM

[
  {
    "compound": "Cc1ccc2c(c1)Cc1c(C(=O)NN3CCCCC3)nn(-c3ccc(Cl)cc3Cl)c1-2",
    "experimental-target": "AEA reuptake in HaCaT cells",
    "readout": "IC50",
    "assay-value": 3.27
  },
  {
    "compound": "CN1CCCC[C@H]1Cn1cc(C(=O)c2cc([N+](=O)[O-])ccc2I)c2ccccc21 [(S)-AM1241]",
    "experimental-target": "AEA reuptake in HaCaT cells",
    "readout": "IC50",
    "assay-value": 4.49
  },
  {
    "compound": "COc1ccc(C(=O)c2c(C)n(CCN3CCOCC3)c3cc(I)ccc23)cc1",
    "experimental-target": "AEA reuptake in HaCaT cells",
    "readout": "IC50",
    "assay-value": 4.18
  }
]

q: Look at this compound and give its reported IC50. CN1CCCCC1Cn1cc(C(=O)c2cc([N+](=O)[O-])ccc2I)c2ccccc21 (racemic) [(rac)-AM1241]
a: 4.01

* * *

# experimental-target: Rat recombinant TRPV3 (Rattus norvegicus, UniProt Q4QYD9)
# Sequence (Q4QYD9 1-791): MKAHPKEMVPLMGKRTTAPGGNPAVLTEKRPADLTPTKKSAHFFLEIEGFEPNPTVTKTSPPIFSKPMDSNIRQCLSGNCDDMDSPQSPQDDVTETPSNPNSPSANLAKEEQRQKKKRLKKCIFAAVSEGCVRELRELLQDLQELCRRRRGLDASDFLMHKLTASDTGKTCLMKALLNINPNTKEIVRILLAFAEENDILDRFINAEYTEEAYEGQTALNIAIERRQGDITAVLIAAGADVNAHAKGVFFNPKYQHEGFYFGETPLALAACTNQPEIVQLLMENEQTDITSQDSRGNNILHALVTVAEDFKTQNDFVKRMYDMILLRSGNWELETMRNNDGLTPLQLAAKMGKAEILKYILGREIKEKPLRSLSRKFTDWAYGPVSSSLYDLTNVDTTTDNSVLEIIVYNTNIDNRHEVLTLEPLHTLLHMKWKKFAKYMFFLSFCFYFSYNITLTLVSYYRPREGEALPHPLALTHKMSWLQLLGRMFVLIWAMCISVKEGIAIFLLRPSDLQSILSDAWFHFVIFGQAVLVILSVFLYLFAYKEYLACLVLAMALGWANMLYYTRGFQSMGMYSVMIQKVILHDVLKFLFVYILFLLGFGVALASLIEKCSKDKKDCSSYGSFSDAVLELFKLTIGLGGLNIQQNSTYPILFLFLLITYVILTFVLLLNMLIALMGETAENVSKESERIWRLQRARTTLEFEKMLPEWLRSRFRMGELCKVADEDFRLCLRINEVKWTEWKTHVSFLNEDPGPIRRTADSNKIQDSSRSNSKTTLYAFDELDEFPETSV
# test-method-notes: cell-based
# stated-conditions: read-out: TRPV3 Potency EC50
Binary label based on EC50 with cut-off 9 µM: below gives rule met, not below gives rule not met.

Take a look at these entries with their results.
[
  {
    "compound": "CCCCCCC(C)(C)c1cc(OC)c(C2=C[C@H]3CC[C@]2(CO)C3(C)C)c(OC)c1",
    "assigned-class": "rule met"
  },
  {
    "compound": "Cc1c(C(=O)c2cccc3ccccc23)c2cccc3c2n1[C@H](CN1CCOCC1)CO3",
    "assigned-class": "rule met"
  },
  {
    "compound": "Cc1ccc(C(C)C)c(O)c1",
    "assigned-class": "rule not met"
  }
]

q: Confirm or reject: EC50 of Cc1c(C(=O)NN2CCCCC2)nn(-c2ccc(Cl)cc2Cl)c1-c1ccc(Cl)cc1 [SR141716A] lies strictly below 9 µM
a: rule met

q: Similarly, CN1CCCC[C@@H]1Cn1cc(C(=O)c2cc([N+](=O)[O-])ccc2I)c2ccccc21 [(R)-AM1241] ?
a: rule not met

* * *

# experimental-target: hCB2R (Homo sapiens, UniProt P34972)
# Sequence (P34972 whole entry): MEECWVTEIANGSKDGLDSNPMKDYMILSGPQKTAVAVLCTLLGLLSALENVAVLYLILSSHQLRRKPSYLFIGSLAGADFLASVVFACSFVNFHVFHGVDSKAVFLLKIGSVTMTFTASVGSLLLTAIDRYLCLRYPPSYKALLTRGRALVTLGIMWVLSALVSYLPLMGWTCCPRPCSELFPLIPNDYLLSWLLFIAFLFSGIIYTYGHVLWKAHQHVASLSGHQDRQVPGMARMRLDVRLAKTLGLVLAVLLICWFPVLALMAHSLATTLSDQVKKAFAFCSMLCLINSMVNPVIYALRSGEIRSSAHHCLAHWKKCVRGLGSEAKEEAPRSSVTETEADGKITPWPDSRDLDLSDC
# test-method-notes: cell-based
# Type: cell-based
readout: EC50
Be sure to follow the number with its unit.

q: // query EC50 value for entry CCCCC/C=C\C/C=C\C/C=C\C/C=C\CCCC(=O)OC(CO)CO
a: 2000 nM

* * *

# experimental-target: Rat recombinant TRPV3 (Rattus norvegicus)
# Construct: expressed in transfected cells; host or cells: HEK293 (TRPV3-HEK-293, gift from HB Bradshaw, Indiana University)
# test-method-notes: cell-based
# Type: cell-based
TRPV3 Efficacy (% ionomycin 4μM): recorded values
A number alone suffices; assume %.

[
  {
    "molecule": "CN1CCCC[C@@H]1Cn1cc(C(=O)c2cc([N+](=O)[O-])ccc2I)c2ccccc21 [(R)-AM1241]",
    "experimental-target": "Rat recombinant TRPV3 (Rattus norvegicus)",
    "readout": "TRPV3 Efficacy (% ionomycin 4μM)",
    "assay-value": 12.9
  }
]

q: Suppose we examine the molecule CCCCCCC(C)(C)c1cc(OC)c(C2=C[C@H]3CC[C@]2(CO)C3(C)C)c(OC)c1 [HU910] ; what TRPV3 Efficacy (% ionomycin 4μM) value has been reported?
a: 31.3

q: For Cc1c(C(=O)NN2CCCCC2)nn(-c2ccc(Cl)cc2Cl)c1-c1ccc(Cl)cc1 [SR141716A] then?
a: 38.9

q: Now the molecule Cc1ccc(C(C)C)c(O)c1 [thymol]
a: 34.7

q: Item: CN1CCCC[C@H]1Cn1cc(C(=O)c2cc([N+](=O)[O-])ccc2I)c2ccccc21 [(S)-AM1241]
a: 16.2

q: Next entry: Cc1c(C(=O)NN2CCCCC2)nn(-c2ccc(Cl)cc2Cl)c1-c1ccc(I)cc1 [AM251]
a: 25.9

q: Same again, this time with Cc1c(C(=O)c2cccc3ccccc23)c2cccc3c2n1[C@H](CN1CCOCC1)CO3 [WIN55212-2]
a: 22.9

* * *

# experimental-target: mCB1R (Mus musculus)
# Construct: from tissue; host or cells: brain of male C57BL/6J mice
# Sequence (P47746 whole entry): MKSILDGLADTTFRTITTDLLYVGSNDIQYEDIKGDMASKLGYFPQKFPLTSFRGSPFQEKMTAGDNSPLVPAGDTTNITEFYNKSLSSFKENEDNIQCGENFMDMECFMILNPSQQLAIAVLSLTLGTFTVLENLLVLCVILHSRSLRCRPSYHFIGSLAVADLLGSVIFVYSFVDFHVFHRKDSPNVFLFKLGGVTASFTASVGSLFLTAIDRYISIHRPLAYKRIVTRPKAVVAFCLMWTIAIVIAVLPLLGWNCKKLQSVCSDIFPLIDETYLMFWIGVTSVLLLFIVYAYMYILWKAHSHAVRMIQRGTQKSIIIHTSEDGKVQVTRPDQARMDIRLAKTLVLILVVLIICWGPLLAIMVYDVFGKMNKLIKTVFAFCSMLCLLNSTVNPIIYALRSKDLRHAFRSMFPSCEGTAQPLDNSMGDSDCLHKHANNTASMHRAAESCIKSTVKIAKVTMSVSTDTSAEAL
# test-method-notes: biochemical
# stated-conditions: read-out: Emax cAMP mCB1R
readout: Emax (%)
Report as a plain number; the unit % is understood.

Please review the entries below; each comes with its answer.
[
  {
    "molecule-smiles": "CCCCCCC(C)(C)c1cc(OC)c([C@@H]2C=C(CO)[C@@H]3C[C@H]2C3(C)C)c(OC)c1",
    "experimental-target": "mCB1R (Mus musculus)",
    "readout": "Emax",
    "unit-abbreviation": "%",
    "assay-value": 10
  },
  {
    "molecule-smiles": "CCCCCCC(C)(C)c1ccc([C@@H]2C[C@H](O)CC[C@H]2CCCO)c(O)c1",
    "experimental-target": "mCB1R (Mus musculus)",
    "readout": "Emax",
    "unit-abbreviation": "%",
    "assay-value": 100
  }
]

Proceeding to the next compound to report its Emax.
q: Value lookup for Emax; key = CCCCCCC(C)(C)c1cc(O)c2c(c1)OC(C)(C)[C@@H]1CC=C(CO)C[C@@H]21
a: 65
